Reference for the values: patent US20070004660A1

# System name: wild-type FLT3 receptor (Homo sapiens, UniProt P36888)
# Sequence (P36888 27-993): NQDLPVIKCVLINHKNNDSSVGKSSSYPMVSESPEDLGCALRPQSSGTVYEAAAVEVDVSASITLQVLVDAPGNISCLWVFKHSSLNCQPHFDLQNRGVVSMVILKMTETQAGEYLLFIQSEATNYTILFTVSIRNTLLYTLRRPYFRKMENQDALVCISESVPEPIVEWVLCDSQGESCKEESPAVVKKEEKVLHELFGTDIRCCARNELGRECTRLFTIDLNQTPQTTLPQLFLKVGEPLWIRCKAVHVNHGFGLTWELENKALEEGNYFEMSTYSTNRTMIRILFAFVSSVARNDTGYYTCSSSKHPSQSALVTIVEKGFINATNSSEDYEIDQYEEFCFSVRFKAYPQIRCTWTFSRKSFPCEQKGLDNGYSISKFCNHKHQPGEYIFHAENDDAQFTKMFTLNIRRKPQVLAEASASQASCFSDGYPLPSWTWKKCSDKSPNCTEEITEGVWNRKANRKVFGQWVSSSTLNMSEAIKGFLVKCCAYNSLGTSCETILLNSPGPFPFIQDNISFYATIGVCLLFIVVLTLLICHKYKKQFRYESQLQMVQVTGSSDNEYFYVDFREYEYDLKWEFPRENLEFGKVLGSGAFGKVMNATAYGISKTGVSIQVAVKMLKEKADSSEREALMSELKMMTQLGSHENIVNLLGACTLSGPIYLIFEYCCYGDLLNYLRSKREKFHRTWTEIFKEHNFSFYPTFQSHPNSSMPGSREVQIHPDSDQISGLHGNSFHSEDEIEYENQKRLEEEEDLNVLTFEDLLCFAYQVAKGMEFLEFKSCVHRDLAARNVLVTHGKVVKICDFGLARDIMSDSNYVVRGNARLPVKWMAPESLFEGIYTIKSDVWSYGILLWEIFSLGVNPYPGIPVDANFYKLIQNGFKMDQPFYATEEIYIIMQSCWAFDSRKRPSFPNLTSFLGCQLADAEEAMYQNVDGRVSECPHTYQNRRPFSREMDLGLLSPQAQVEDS
# Measurement notes: Cell-based FLT3 receptor ELISA (FLT ligand-induced phosphorylation in Baf3 FLT3 cells)
# Run conditions: 100 ng/mL Flt ligand, uncertainty ±20%
// class assignment uses IC50 with these ranges: group 1 = under 30 nM, group 2 = from 30 nM up to 100 nM, group 3 = 100 nM and over

Answered examples (5):
- Compound: "COc1cc2c(C3CCN(C(=O)Nc4ccc(N5CCOCC5)cc4)CC3)ncnc2cc1N1CCOCC1"
  Label class: "group 2"
- Compound: "CC(C)Oc1ccc(NC(=O)N2CCC(c3ncnc4cc(N(C)C)ccc34)CC2)cc1"
  Label class: "group 1"
- Compound: "CN1CCN(c2ccc3c(C4CCN(C(=O)Nc5ccc(N6CCCC6)nc5)CC4)ncnc3c2)CC1"
  Label class: "group 1"
- Compound: "CN(C)C(=O)N1CCN(CCCOc2ccc3c(C4CCN(C(=O)Nc5ccc(N6CCOCC6)cc5)CC4)ncnc3c2)CC1"
  Label class: "group 1"
- Compound: "COc1cc2ncnc(C3CCN(C(=O)Nc4ccc(-c5ccco5)cc4)CC3)c2cc1OC"
  Label class: "group 1"

q: # bin label for "CCN1CCN(CCCOc2ccc3c(C4CCN(C(=O)Nc5ccc(N6CCOCC6)cc5)CC4)ncnc3c2)CC1"
a: group 1

q: # bin label for "O=C(Nc1ccc(N2CCOCC2)cc1)N1CCC(c2ncnc3cc(N4CCNC4=O)ccc23)CC1"
a: group 2

q: # bin label for "COc1cc2ncnc(C3CCN(C(=O)Nc4ccc(-c5cncnc5)cc4)CC3)c2cc1OC"
a: group 3

q: # bin label for "O=C1CCCN1CCOc1ccc2c(C3CCN(C(=O)Nc4cnc(N5CCCC5)nc4)CC3)ncnc2c1"
a: group 2

q: # bin label for "COc1cc2ncnc(C3CCN(C(=O)Nc4ccccc4)CC3)c2cc1OC"
a: group 3

q: # bin label for "COc1cc2ncnc(C3CCN(C(=O)Nc4ccc(N5CCOCC5)cc4)CC3)c2cc1OC"
a: group 3

q: # bin label for "COc1cc2ncnc(C3CCN(C(=O)Nc4ccc(-n5ccnc5)cc4)CC3)c2cc1OC"
a: group 3

q: # bin label for COc1cc2ncnc(C3CCN(C(=O)Nc4ccc(C(C)O)cc4)CC3)c2cc1OC (stereo not shown)
a: group 3

q: # bin label for "CC(C)Oc1ccc(NC(=O)N2CCC(c3ncnc4cc(OCCCNS(C)(=O)=O)ccc34)CC2)cc1"
a: group 2

q: # bin label for "CC(C)Oc1ccc(NC(=O)N2CCC(c3ncnc4ccc(C#CCN5CCCCC5)cc34)CC2)cc1"
a: group 3

###

IC50 reference
# System name: isolated kinase domain of the human FLT3 receptor (a.a. 571-993) (Homo sapiens)
# Construct: human FLT3 receptor (a.a. 571-993)
# Measurement notes: FLT3 fluorescence polarization kinase assay
# Run conditions: 150 uM ATP; uncertainty ±10%
Answer format: numeric, nM implied, no suffix.

Example entries begin here.
- Compound: "O=C(Nc1ccc(N2CCCC2)cc1)N1CCC(c2ncnc3cc(O[C@@H]4CCOC4)ccc23)CC1 [Compound 191]"
  System name: "isolated kinase domain of the human FLT3 receptor (a.a. 571-993) (Homo sapiens)"
  IC50 (nM): 216
- Compound: "O=C(Nc1ccc(N2CCCC2)cc1)N1CCC(c2ncnc3cc(-n4ccnc4)ccc23)CC1 [Compound 180]"
  System name: "isolated kinase domain of the human FLT3 receptor (a.a. 571-993) (Homo sapiens)"
  IC50 (nM): 6
- Compound: "CC(=O)N1CCN(c2ccc3c(C4CCN(C(=O)Nc5ccc(N6CCCC6)cc5)CC4)ncnc3c2)CC1 [Example 166]"
  System name: "isolated kinase domain of the human FLT3 receptor (a.a. 571-993) (Homo sapiens)"
  IC50 (nM): 9
- Compound: "CN1CCC(COc2ccc3c(C4CCN(C(=O)Nc5ccc(N6CCOCC6)cc5)CC4)ncnc3c2)CC1 [Example 94]"
  System name: "isolated kinase domain of the human FLT3 receptor (a.a. 571-993) (Homo sapiens)"
  IC50 (nM): 1
- Compound: "O=C(Nc1ccc(N2CCOCC2)cc1)N1CCC(c2ncnc3cc(N4CC[C@@H](O)C4)ccc23)CC1 [Example 126]"
  System name: "isolated kinase domain of the human FLT3 receptor (a.a. 571-993) (Homo sapiens)"
  IC50 (nM): 25
- Compound: "COc1cc2c(C3CCN(C(=O)Nc4ccc(N5CCOCC5)cc4)CC3)ncnc2cc1N1CCOCC1 [Compound 212]"
  System name: "isolated kinase domain of the human FLT3 receptor (a.a. 571-993) (Homo sapiens)"
  IC50 (nM): 239

q: Which value of IC50 has been reported for CC(C)Oc1ccc(NC(=O)N2CCC(c3ncnc4ccc(OCCCN5CCCC5=O)cc34)CC2)cc1 [Example 101] in the records?
a: 0.8
